Test system: SH-SY5Y
Test: Cytotoxicity against human SH-SY5Y cells assessed as cell viability up to 100 uM after 48 hrs by MTT assay relative to control
Format: cell-based
observedProperty: Activity

molecule | observedProperty | measured
CCN(CCCCOc1ccc(C2CC(=O)c3c(O)cc(OCCCCN(CC)Cc4ccccc4OC)cc3O2)cc1)Cc1ccccc1OC (centres undefined) | Activity | Non-Toxic
CCN(CCCCOc1ccc(-c2cc(=O)c3c(O)cc(OCCCCN(CC)Cc4ccccc4)cc3o2)cc1)Cc1ccccc1 | Activity | Non-Toxic
O=c1c(-c2ccc(OCCCCN3CCCCC3)cc2)coc2cc(OCCCCN3CCCCC3)cc(O)c12 | Activity | Non-Toxic
CCN(CCCCOc1ccc(/C=C/C(=O)c2c(O)cc(OCCCCN(CC)Cc3ccccc3OC)cc2O)cc1)Cc1ccccc1OC | Activity | Toxic

---

Assay: Toxicity in 3 dpf zebra fish assessed as mortality at 200 ug/ml (reference value: 0%)
Design: species or system Danio rerio
Conditions: zebrafish, at 200 µg/mL, read-out: Activity

lineNotation | mortality at 200 ug/ml (%)
CCN(CCCCOc1ccc(-c2cc(=O)c3c(O)cc(OCCCCN(CC)Cc4ccccc4)cc3o2)cc1)Cc1ccccc1 | 100

---

Target: Cholinesterase (Homo sapiens, UniProt P06276)
Sequence (P06276 whole entry): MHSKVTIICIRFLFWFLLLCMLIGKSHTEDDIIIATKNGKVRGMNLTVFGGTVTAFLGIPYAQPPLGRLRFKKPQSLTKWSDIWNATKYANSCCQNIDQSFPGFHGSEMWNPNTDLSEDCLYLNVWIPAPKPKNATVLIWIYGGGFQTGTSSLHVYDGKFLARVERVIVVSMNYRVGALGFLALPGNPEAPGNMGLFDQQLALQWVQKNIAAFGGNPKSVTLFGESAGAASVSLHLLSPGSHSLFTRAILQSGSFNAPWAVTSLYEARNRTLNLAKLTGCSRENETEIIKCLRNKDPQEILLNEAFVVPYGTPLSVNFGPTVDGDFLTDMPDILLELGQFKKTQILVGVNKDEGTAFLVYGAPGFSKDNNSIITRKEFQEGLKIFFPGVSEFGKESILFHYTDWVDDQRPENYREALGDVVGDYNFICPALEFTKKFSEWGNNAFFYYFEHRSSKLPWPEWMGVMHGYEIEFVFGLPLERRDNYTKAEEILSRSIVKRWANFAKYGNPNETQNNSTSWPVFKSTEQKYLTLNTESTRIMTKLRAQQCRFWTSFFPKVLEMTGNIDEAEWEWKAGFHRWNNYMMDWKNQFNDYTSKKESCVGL
Experiment: Inhibition of human serum BChE by Ellman's method
Label Criterion met when IC50 < 10 µM; otherwise Criterion not met.

compound | answerLabel
O=c1c(-c2ccc(OCCCCN3CCC(Cc4ccccc4)CC3)cc2)coc2cc(OCCCCN3CCC(Cc4ccccc4)CC3)cc(O)c12 | Criterion not met
O=c1cc(-c2ccc(OCCCCN3CCc4ccccc4C3)cc2)oc2cc(OCCCCN3CCc4ccccc4C3)cc(O)c12 | Criterion not met
O=c1c(-c2ccc(OCCCCN3CCN(Cc4ccccc4)CC3)cc2)coc2cc(OCCCCN3CCN(Cc4ccccc4)CC3)cc(O)c12 | Criterion not met
CCN(CCCCOc1ccc(C2CC(=O)c3c(O)cc(OCCCCN(CC)Cc4ccccc4OC)cc3O2)cc1)Cc1ccccc1OC (centres undefined) | Criterion not met
O=c1c(-c2ccc(OCCCCN3CCc4ccccc4C3)cc2)coc2cc(OCCCCN3CCc4ccccc4C3)cc(O)c12 | Criterion not met
O=C(/C=C/c1ccc(OCCCCN2CCCC2)cc1)c1c(O)cc(OCCCCN2CCCC2)cc1O | Criterion met
O=c1c(-c2ccc(OCCCCN3CCCCC3)cc2)coc2cc(OCCCCN3CCCCC3)cc(O)c12 | Criterion not met
O=C1CC(c2ccc(OCCCCN3CCC(Cc4ccccc4)CC3)cc2)Oc2cc(OCCCCN3CCC(Cc4ccccc4)CC3)cc(O)c21 (centres undefined) | Criterion not met
O=C1CC(c2ccc(OCCCCN3CCc4ccccc4C3)cc2)Oc2cc(OCCCCN3CCc4ccccc4C3)cc(O)c21 (centres undefined) | Criterion not met
CCN(CCCCOc1ccc(-c2cc(=O)c3c(O)cc(OCCCCN(CC)Cc4ccccc4)cc3o2)cc1)Cc1ccccc1 | Criterion not met
O=C(/C=C/c1ccc(OCCCCN2CCCCC2)cc1)c1c(O)cc(OCCCCN2CCCCC2)cc1O | Criterion met
O=C1CC(c2ccc(OCCCCN3CCN(Cc4ccccc4)CC3)cc2)Oc2cc(OCCCCN3CCN(Cc4ccccc4)CC3)cc(O)c21 (centres undefined) | Criterion not met
CCN(CCCCOc1ccc(-c2coc3cc(OCCCCN(CC)Cc4ccccc4)cc(O)c3c2=O)cc1)Cc1ccccc1 | Criterion not met
CCN(CCCCOc1ccc(/C=C/C(=O)c2c(O)cc(OCCCCN(CC)Cc3ccccc3OC)cc2O)cc1)Cc1ccccc1OC | Criterion met
CC1c2ccccc2CCN1CCCCOc1ccc(-c2coc3cc(OCCCCN4CCc5ccccc5C4C)cc(O)c3c2=O)cc1 (centres undefined) | Criterion not met
O=c1cc(-c2ccc(OCCCCN3CCN(Cc4ccccc4)CC3)cc2)oc2cc(OCCCCN3CCN(Cc4ccccc4)CC3)cc(O)c12 | Criterion not met
CCN(CC)CCCCOc1ccc(/C=C/C(=O)c2c(O)cc(OCCCCN(CC)CC)cc2O)cc1 | Criterion met
O=C(/C=C/c1ccc(OCCCCN2CCC(Cc3ccccc3)CC2)cc1)c1c(O)cc(OCCCCN2CCC(Cc3ccccc3)CC2)cc1O | Criterion met
O=c1cc(-c2ccc(OCCCCN3CCC(Cc4ccccc4)CC3)cc2)oc2cc(OCCCCN3CCC(Cc4ccccc4)CC3)cc(O)c12 | Criterion not met

---

Assay: Toxicity in 3 dpf zebra fish assessed as mortality at 1.56 ug/ml (reference value: 0%)
Set-up: species or system Danio rerio
Details: zebrafish, at 1.56 µg/mL, read-out: Activity
observedProperty: mortality at 1.56 ug/ml (%)

lineNotation | measured
CCN(CCCCOc1ccc(-c2cc(=O)c3c(O)cc(OCCCCN(CC)Cc4ccccc4)cc3o2)cc1)Cc1ccccc1 | 6.7

---

Test: Toxicity in 3 dpf zebra fish assessed as mortality at 50 ug/ml (reference value: 0%)
Design: species or system Danio rerio
Settings: zebrafish, at 50 µg/mL, read-out: Activity

lineNotation | mortality at 50 ug/ml (%)
CCN(CCCCOc1ccc(-c2cc(=O)c3c(O)cc(OCCCCN(CC)Cc4ccccc4)cc3o2)cc1)Cc1ccccc1 | 100

---

Assay: Toxicity in 3 dpf zebra fish assessed as mortality at 0.78 ug/ml (reference value: 0%)
Set-up: species or system Danio rerio
Settings: zebrafish, at 0.78 µg/mL, read-out: Activity

lineNotation | unitInfo | mortality at 0.78 ug/ml
CCN(CCCCOc1ccc(-c2cc(=O)c3c(O)cc(OCCCCN(CC)Cc4ccccc4)cc3o2)cc1)Cc1ccccc1 | % | 0

---

# Acetylcholinesterase (Electrophorus electricus, UniProt O42275): pIC50 values follow
# Sequence (O42275 whole entry): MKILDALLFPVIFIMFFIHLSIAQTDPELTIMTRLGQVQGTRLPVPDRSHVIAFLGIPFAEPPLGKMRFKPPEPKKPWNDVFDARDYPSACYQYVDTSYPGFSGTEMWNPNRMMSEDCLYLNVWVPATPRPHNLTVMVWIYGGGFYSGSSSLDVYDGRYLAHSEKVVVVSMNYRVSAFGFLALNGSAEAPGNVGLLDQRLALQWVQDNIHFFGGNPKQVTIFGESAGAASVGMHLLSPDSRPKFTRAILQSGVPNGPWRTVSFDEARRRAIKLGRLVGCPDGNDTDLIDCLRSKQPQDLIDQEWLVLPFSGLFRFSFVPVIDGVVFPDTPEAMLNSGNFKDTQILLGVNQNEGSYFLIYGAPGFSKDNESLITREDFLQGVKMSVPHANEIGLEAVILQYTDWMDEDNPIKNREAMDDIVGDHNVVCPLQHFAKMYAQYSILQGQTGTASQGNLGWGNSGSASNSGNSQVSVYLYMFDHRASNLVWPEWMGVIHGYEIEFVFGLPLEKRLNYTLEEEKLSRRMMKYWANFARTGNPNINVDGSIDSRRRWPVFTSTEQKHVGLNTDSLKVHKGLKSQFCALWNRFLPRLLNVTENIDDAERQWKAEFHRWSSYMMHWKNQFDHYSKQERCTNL
pIC50: −log10 of the molar value.

lineNotation | system | pIC50
O=c1c(-c2ccc(OCCCCN3CCN(Cc4ccccc4)CC3)cc2)coc2cc(OCCCCN3CCN(Cc4ccccc4)CC3)cc(O)c12 | Acetylcholinesterase (Electrophorus electricus, UniProt O42275) | 4.70
CCN(CCCCOc1ccc(-c2coc3cc(OCCCCN(CC)Cc4ccccc4)cc(O)c3c2=O)cc1)Cc1ccccc1 | Acetylcholinesterase (Electrophorus electricus, UniProt O42275) | 5.64
CCN(CCCCOc1ccc(/C=C/C(=O)c2c(O)cc(OCCCCN(CC)Cc3ccccc3OC)cc2O)cc1)Cc1ccccc1OC | Acetylcholinesterase (Electrophorus electricus, UniProt O42275) | 5.94
O=c1cc(-c2ccc(OCCCCN3CCC(Cc4ccccc4)CC3)cc2)oc2cc(OCCCCN3CCC(Cc4ccccc4)CC3)cc(O)c12 | Acetylcholinesterase (Electrophorus electricus, UniProt O42275) | 4.97
O=c1cc(-c2ccc(OCCCCN3CCc4ccccc4C3)cc2)oc2cc(OCCCCN3CCc4ccccc4C3)cc(O)c12 | Acetylcholinesterase (Electrophorus electricus, UniProt O42275) | 4.74
CCN(CC)CCCCOc1ccc(/C=C/C(=O)c2c(O)cc(OCCCCN(CC)CC)cc2O)cc1 | Acetylcholinesterase (Electrophorus electricus, UniProt O42275) | 5.20
O=C(/C=C/c1ccc(OCCCCN2CCCCC2)cc1)c1c(O)cc(OCCCCN2CCCCC2)cc1O | Acetylcholinesterase (Electrophorus electricus, UniProt O42275) | 5.45
O=C(/C=C/c1ccc(OCCCCN2CCCC2)cc1)c1c(O)cc(OCCCCN2CCCC2)cc1O | Acetylcholinesterase (Electrophorus electricus, UniProt O42275) | 5.24

---

// reported Papp at 100 ug/m per item
Experiment: Effective permeability of compound at 100 ug/m by PAMPA-BBB assay
Format: ADME
Conditions: read-out: Peff

lineNotation | Papp at 100 ug/m
O=c1cc(-c2ccc(O)cc2)oc2cc(O)cc(O)c12 | 15.7 ×10⁻⁶ cm/s
CCN(CCCCOc1ccc(-c2cc(=O)c3c(O)cc(OCCCCN(CC)Cc4ccccc4)cc3o2)cc1)Cc1ccccc1 | 1.68 ×10⁻⁶ cm/s

---

Target: Acetylcholinesterase (Homo sapiens)
Sequence (P22303 whole entry): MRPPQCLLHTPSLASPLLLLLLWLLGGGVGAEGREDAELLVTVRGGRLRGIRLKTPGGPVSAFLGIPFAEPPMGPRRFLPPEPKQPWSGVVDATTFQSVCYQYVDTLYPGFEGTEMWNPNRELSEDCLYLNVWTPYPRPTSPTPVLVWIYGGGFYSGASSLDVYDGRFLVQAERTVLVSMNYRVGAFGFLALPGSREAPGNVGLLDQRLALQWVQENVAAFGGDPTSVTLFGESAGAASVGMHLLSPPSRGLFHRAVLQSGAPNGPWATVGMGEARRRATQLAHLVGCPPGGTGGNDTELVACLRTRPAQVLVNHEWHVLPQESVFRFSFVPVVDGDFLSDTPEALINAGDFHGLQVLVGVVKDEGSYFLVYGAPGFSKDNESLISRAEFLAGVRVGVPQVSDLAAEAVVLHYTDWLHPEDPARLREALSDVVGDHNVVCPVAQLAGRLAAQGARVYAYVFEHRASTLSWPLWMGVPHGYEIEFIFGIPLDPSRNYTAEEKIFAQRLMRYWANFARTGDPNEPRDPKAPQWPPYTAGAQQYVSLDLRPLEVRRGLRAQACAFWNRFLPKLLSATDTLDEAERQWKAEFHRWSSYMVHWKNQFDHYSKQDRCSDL
Experiment: Inhibition of AChE in human erythrocytes by Ellman's method
Entries and their measured IC50 follow.
observedProperty: IC50 (µM)

molecule | system | observedProperty | measured
CCN(CCCCOc1ccc(/C=C/C(=O)c2c(O)cc(OCCCCN(CC)Cc3ccccc3OC)cc2O)cc1)Cc1ccccc1OC | Acetylcholinesterase (Homo sapiens) | IC50 | 1.3
CC1c2ccccc2CCN1CCCCOc1ccc(-c2coc3cc(OCCCCN4CCc5ccccc5C4C)cc(O)c3c2=O)cc1 (configuration not stated) | Acetylcholinesterase (Homo sapiens) | IC50 | 5.3
O=c1cc(-c2ccc(OCCCCN3CCc4ccccc4C3)cc2)oc2cc(OCCCCN3CCc4ccccc4C3)cc(O)c12 | Acetylcholinesterase (Homo sapiens) | IC50 | 0.59
O=C1CC(c2ccc(OCCCCN3CCc4ccccc4C3)cc2)Oc2cc(OCCCCN3CCc4ccccc4C3)cc(O)c21 (configuration not stated) | Acetylcholinesterase (Homo sapiens) | IC50 | 13.2
O=c1c(-c2ccc(OCCCCN3CCN(Cc4ccccc4)CC3)cc2)coc2cc(OCCCCN3CCN(Cc4ccccc4)CC3)cc(O)c12 | Acetylcholinesterase (Homo sapiens) | IC50 | 25.1
CCN(CC)CCCCOc1ccc(/C=C/C(=O)c2c(O)cc(OCCCCN(CC)CC)cc2O)cc1 | Acetylcholinesterase (Homo sapiens) | IC50 | 4.7
CCN(CCCCOc1ccc(-c2cc(=O)c3c(O)cc(OCCCCN(CC)Cc4ccccc4)cc3o2)cc1)Cc1ccccc1 | Acetylcholinesterase (Homo sapiens) | IC50 | 0.36
